Experimental Target: CHK1 kinase (Homo sapiens, UniProt O14757)
Sequence (O14757 9-265 limits assumed): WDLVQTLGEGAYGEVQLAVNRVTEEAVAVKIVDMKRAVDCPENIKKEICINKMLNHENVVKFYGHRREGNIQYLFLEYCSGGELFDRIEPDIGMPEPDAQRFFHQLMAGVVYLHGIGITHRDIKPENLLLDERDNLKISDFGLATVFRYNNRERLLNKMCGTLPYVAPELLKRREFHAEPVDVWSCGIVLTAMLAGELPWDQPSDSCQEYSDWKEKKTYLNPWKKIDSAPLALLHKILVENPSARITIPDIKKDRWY
Recorded Metric: pIC50
Units for pIC50: none; it is -log10 of a concentration expressed in mol/L.

Problem: Return pIC50 (reported value) for this molecule: COc1ccc(F)cc1-c1cc(C(=O)N[C@H]2CCCCNC2)c(NC(N)=O)s1 [Example 97]
Result: 9.85

Data provenance is patent US20070010556A1.
